Values compiled from ChEMBL document CHEMBL1144200.

Assay: Cmax in BALB/c mouse at 20 mg/kg, po
Assay type: ADME, organism-based
Parameters: dose 20 mg/kg, route oral
Settings: in vivo
MEASURE_NAME: Cmax (nM)

>  <RECORD_SMILES>
Cc1cc(C)cc(-c2ccc3c4c([nH]c3c2)-c2cc(O)c(C(=O)O)cc2CC4)c1

>  <MEASURE_NAME>
Cmax

>  <REPORTED_RESULT>
2000

$$$$

====

Molecular target: Thrombopoietin receptor (Homo sapiens) (UniProt P40238)
Sequence (P40238 whole entry): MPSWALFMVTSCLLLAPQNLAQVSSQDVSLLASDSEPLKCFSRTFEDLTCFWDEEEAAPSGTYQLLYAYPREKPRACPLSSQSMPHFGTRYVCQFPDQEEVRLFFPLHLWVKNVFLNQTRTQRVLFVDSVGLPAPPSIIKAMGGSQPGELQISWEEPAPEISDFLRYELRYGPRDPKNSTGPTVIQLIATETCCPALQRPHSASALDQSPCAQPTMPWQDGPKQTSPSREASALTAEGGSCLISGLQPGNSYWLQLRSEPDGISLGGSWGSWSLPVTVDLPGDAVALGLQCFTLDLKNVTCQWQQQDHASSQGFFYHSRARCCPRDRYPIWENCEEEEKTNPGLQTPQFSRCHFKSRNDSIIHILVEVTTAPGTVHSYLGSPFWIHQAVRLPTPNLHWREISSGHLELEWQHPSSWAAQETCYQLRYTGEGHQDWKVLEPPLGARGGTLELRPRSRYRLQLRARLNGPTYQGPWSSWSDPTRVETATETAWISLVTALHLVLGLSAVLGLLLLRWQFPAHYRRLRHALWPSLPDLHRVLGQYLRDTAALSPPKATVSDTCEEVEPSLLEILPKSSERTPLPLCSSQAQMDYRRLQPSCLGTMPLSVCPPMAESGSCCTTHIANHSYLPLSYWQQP
Assay: Agonist activity at human thrombopoietin receptor in Ba/F3 cells assessed as activation of Stat5 response element-driven reporter gene expression relative to 30 ng/mL thrombopoietin
Assay type: functional, cell-based
Conditions: BaF3
Documented Efficacy across a set of compounds
MEASURE_NAME: Efficacy (%)

>  <RECORD_SMILES>
O=C(O)c1cc2c(cc1O)-c1[nH]c3cc(-c4ccccc4)ccc3c1CC2

>  <UNITS_OF_MEASURE>
%

>  <REPORTED_RESULT>
136

$$$$
>  <RECORD_SMILES>
Cc1ccc2c(c1)[nH]c1c3cc(O)c(CC(=O)O)cc3ccc21

>  <UNITS_OF_MEASURE>
%

>  <REPORTED_RESULT>
70

$$$$
>  <RECORD_SMILES>
Cc1cc(-c2ccc3c4c([nH]c3c2)-c2cc(O)c(C(=O)O)cc2CC4)ccc1F

>  <UNITS_OF_MEASURE>
%

>  <REPORTED_RESULT>
126

$$$$
>  <RECORD_SMILES>
O=C(O)c1cc2c(cc1O)-c1[nH]c3cc(-c4cccc(C(F)(F)F)c4)ccc3c1CC2

>  <UNITS_OF_MEASURE>
%

>  <REPORTED_RESULT>
127

$$$$
>  <RECORD_SMILES>
CCCOc1cccc(-c2ccc3c4c([nH]c3c2)-c2cc(O)c(C(=O)O)cc2CC4)c1

>  <UNITS_OF_MEASURE>
%

>  <REPORTED_RESULT>
147

$$$$
>  <RECORD_SMILES>
CN(C)c1ccc(-c2ccc3c4c([nH]c3c2)-c2cc(O)c(C(=O)O)cc2CC4)cc1

>  <UNITS_OF_MEASURE>
%

>  <REPORTED_RESULT>
136

$$$$
>  <RECORD_SMILES>
O=C(O)c1cc2c(cc1O)-c1[nH]c3c(C(F)(F)F)cccc3c1CC2

>  <UNITS_OF_MEASURE>
%

>  <REPORTED_RESULT>
37

$$$$
>  <RECORD_SMILES>
CCCCc1ccc(-c2ccc3c4c([nH]c3c2)-c2ccc(-c3nnn[nH]3)cc2CC4)cc1

>  <UNITS_OF_MEASURE>
%

>  <REPORTED_RESULT>
128

$$$$
>  <RECORD_SMILES>
O=C(O)c1cc2ccc3c4ccc(C(F)(F)F)cc4[nH]c3c2cc1O

>  <UNITS_OF_MEASURE>
%

>  <REPORTED_RESULT>
128

$$$$
>  <RECORD_SMILES>
CCCCc1ccc(-c2ccc3c4c([nH]c3c2)-c2ccc(C(=O)O)cc2CC4)cc1

>  <UNITS_OF_MEASURE>
%

>  <REPORTED_RESULT>
141

$$$$
